Where do the numbers come from? From the supplement of paper PMC10567573.

B1: RSPH3 (parent)
chain: KAASLARNLAKRRRTYLGGAAGRS

# Variants of: B1
# Measurement protocol: protein stability index of a GFP-peptide fusion (GPS, HEK-293T) (PSI 1-6); higher = more stable;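 further: lentivirally expressed fusions sorted by FACS into six bins by GFP to DsRed ratio, PSI derived from sequencing read proportions per bin multiplied by bin number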
# Condition: c terminus: a fixed tail appended
# protein stability index per record follows
Give the value as a plain number.

Recorded protein stability index, per entry:
Mutation string | protein stability index
A20V | 2.6
A6P | 3.94

I have this variant here, `A2E` , and I need its recorded protein stability index.
3.41

What would you report for `A20E` ?
2.45

What would you report for `A3F` ?
1.01

What would you report for `S24Q` ?
3.37

What would you report for `A2S` ?
3.04

What would you report for `A2G` ?
3

What would you report for `K11P` ?
2.89

What would you report for `R14G` ?
1.73
